Molecular target: CLK2 (human) (UniProt P49760)
Sequence (P49760 whole entry, looked up): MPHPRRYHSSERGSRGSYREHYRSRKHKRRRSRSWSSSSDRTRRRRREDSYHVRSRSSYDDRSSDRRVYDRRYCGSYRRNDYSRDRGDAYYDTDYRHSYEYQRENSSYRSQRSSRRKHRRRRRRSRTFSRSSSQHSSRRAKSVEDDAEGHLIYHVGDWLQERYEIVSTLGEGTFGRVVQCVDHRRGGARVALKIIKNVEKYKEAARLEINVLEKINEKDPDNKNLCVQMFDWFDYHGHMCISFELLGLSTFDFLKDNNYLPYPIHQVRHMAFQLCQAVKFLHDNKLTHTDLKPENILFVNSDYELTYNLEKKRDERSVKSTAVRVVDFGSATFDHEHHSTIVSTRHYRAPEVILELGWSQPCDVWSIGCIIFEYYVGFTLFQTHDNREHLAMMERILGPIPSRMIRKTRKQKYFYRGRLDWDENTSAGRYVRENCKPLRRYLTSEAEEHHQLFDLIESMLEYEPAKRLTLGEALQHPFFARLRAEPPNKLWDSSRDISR
Assay: radiometric filter-binding kinase assay, Kinase HotSpot
Details: compound 0.5 µM; ATP 10 µM
Here the recorded residual activity is given for each entry.
Readout Type: residual activity (%)

[[record]]
smiles_notation = "NC(=O)c1cccc(-c2cc(Nc3ccc(OC(F)(F)F)cc3)ncn2)c1"
recorded_value = 93.1

[[record]]
smiles_notation = "COc1ccc2c(c1)c(C1=C(c3c[nH]c4ccccc34)C(=O)NC1=O)cn2CCCN(C)C"
recorded_value = 78

[[record]]
smiles_notation = "c1ccc2c(-c3ccncc3)c[nH]c2c1"
recorded_value = 101

[[record]]
smiles_notation = "O=C1c2ccccc2-c2nc3nnnn3nc21"
recorded_value = 92.1

